Tested on: Metabolism protein genes
run.description: DNA chip mRNA expression in yeast, metabolism protein genes (Table 7)
Assay type: cell-based, Saccharomyces cerevisiae S288C
reported.conditions: yeast gene YGL115W
readout.label: level of expressed mRNA in the presence/in the absence of chemical substance
Form field (numeric): enter value without unit.

compound	experimental.result
CCCCCCCCCCCCOS(=O)(=O)[O-].[Na+] [(18), sodium lauryl sulfate]	1.2
C=CC=O	1.2
Cl[C@H]1[C@H](Cl)[C@@H](Cl)[C@@H](Cl)[C@H](Cl)[C@H]1Cl	1.4

Would you kindly look at the next entry?
Q: Name the reported level of expressed mRNA in the presence/in the absence of chemical substance value associated with the compound O=[N+]([O-])c1cc[n+]([O-])c2ccccc12 [(5), 4-nitroquinolin-N-oxide]
A: 1.2
